meta.source: the supplement of paper PMC10307832

# Tested on: EKVX
# Procedure text: relative viability (nuclei count vs DMSO), 5 days (fraction); higher = more cells survive
# Condition info: first compound 0.03162 µM
Please respond with reported relative viability for every item in the list.
Response field accepts a number only; no unit should be typed.

Data request: Report the value of relative viability obtained on EKVX for CCN(CC)CCCCNc1ncc2cc(-c3cc(OC)cc(OC)c3)c(NC(=O)NC(C)(C)C)nc2n1 + Cc1nc(Nc2ncc(C(=O)Nc3c(C)cccc3Cl)s2)cc(N2CCN(CCO)CC2)n1 [Dasatinib] (partner 0.075 µM) .
Data returned: 0.604

Data request: Report the value of relative viability obtained on EKVX for O=c1cc(N2CCOCC2)oc2c(-c3cccc4c3sc3ccccc34)cccc12 + C[C@@H](Oc1cc(-c2cnn(C3CCNCC3)c2)cnc1N)c1c(Cl)ccc(F)c1Cl [Crizotinib] (partner 1 µM) .
Data returned: 0.881

Data request: Report the value of relative viability obtained on EKVX for CCN(CC)CCCCNc1ncc2cc(-c3cc(OC)cc(OC)c3)c(NC(=O)NC(C)(C)C)nc2n1 + CCNC(=O)c1noc(-c2cc(C(C)C)c(O)cc2O)c1-c1ccc(CN2CCOCC2)cc1 [Luminespib] (partner 0.01 µM) .
Data returned: 0.909

Data request: Report the value of relative viability obtained on EKVX for O=c1cc(N2CCOCC2)oc2c(-c3cccc4c3sc3ccccc34)cccc12 + CS(=O)(=O)N1CCN(Cc2cc3nc(-c4cccc5[nH]ncc45)nc(N4CCOCC4)c3s2)CC1 [Pictilisib] (partner 1 µM) .
Data returned: 0.496

Data request: Report the value of relative viability obtained on EKVX for O=c1cc(N2CCOCC2)oc2c(-c3cccc4c3sc3ccccc34)cccc12 + NC(=O)Nc1cc(-c2cccc(F)c2)sc1C(=O)N[C@H]1CCCNC1 [AZD7762] (partner 0.2 µM) .
Data returned: 0.757

----------
# Tested on: LCLC-103H
# Procedure text: relative viability (nuclei count vs DMSO), 5 days (fraction); higher = more cells survive
# Condition info: first compound 8 µM
Flag rule - relative viability less than 0.7 flags true; the remaining entries get false.

Data request: Does the reported relative viability of the following compound sit strictly below 0.7? O=c1cc(-c2cccc3c2Sc2ccccc2S3)oc(N2CCOCC2)c1 + N=C(N)NC(=N)NCCc1ccccc1 [Phenformin] (partner 250 µM)
Data returned: true

Data request: Does the reported relative viability of the following compound sit strictly below 0.7? O=c1cc(-c2cccc3c2Sc2ccccc2S3)oc(N2CCOCC2)c1 + COc1cccc2cc(-c3nc([C@H]4CC[C@H](C(=O)O)CC4)n4ncnc(N)c34)[nH]c12 [OSI-027] (partner 0.5 µM)
Data returned: true

Data request: Does the reported relative viability of the following compound sit strictly below 0.7? O=c1cc(-c2cccc3c2Sc2ccccc2S3)oc(N2CCOCC2)c1 + CS(=O)(=O)N1CCN(Cc2cc3nc(-c4cccc5[nH]ncc45)nc(N4CCOCC4)c3s2)CC1 [Pictilisib] (partner 1 µM)
Data returned: true

Data request: Does the reported relative viability of the following compound sit strictly below 0.7? O=c1cc(-c2cccc3c2Sc2ccccc2S3)oc(N2CCOCC2)c1 + C[C@]1(O)C[C@@H](c2nc(-c3ccc4ccc(-c5ccccc5)nc4c3)c3c(N)nccn32)C1 [Linsitinib] (partner 1 µM)
Data returned: false

Data request: Does the reported relative viability of the following compound sit strictly below 0.7? O=c1cc(-c2cccc3c2Sc2ccccc2S3)oc(N2CCOCC2)c1 + CCNC(=O)c1noc(-c2cc(C(C)C)c(O)cc2O)c1-c1ccc(CN2CCOCC2)cc1 [Luminespib] (partner 0.01 µM)
Data returned: false
